B1: glmS ribozyme (parent)
chain: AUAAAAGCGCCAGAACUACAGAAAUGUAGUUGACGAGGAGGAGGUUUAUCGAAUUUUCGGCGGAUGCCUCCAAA

# Variants of: B1
# Procedure details: self-cleavage kobs at 10000 uM GlcN6P; higher = faster cleavage; RNA array
# Condition parameters: with glucosamine-6-phosphate
Variants at the floor of the assay were thinned out.
Below, each entry is listed with its recorded self-cleavage kobs at 10000 uM GlcN6P.

- Mutation string: "A42C C67A"
  Readout unit: "s⁻¹"
  Censoring sign: "="
  self-cleavage kobs at 10000 uM GlcN6P: 0.000114
- Mutation string: "A33U A53C G62U"
  Readout unit: "s⁻¹"
  Censoring sign: "<"
  self-cleavage kobs at 10000 uM GlcN6P: "1e-05"
- Mutation string: "G35A U54G G62C"
  Readout unit: "s⁻¹"
  Censoring sign: "<"
  self-cleavage kobs at 10000 uM GlcN6P: "1e-05"
- Mutation string: "G13U A53U"
  Readout unit: "s⁻¹"
  Censoring sign: "="
  self-cleavage kobs at 10000 uM GlcN6P: 0.00103
- Mutation string: "A39C U65A"
  Readout unit: "s⁻¹"
  Censoring sign: "="
  self-cleavage kobs at 10000 uM GlcN6P: 0.000359
- Mutation string: "A12U C16U A42G"
  Readout unit: "s⁻¹"
  Censoring sign: "="
  self-cleavage kobs at 10000 uM GlcN6P: 0.0803
- Mutation string: "A42U A53U"
  Readout unit: "s⁻¹"
  Censoring sign: "="
  self-cleavage kobs at 10000 uM GlcN6P: "9.14e-05"
- Mutation string: "G40A A48U C61G"
  Readout unit: "s⁻¹"
  Censoring sign: "<"
  self-cleavage kobs at 10000 uM GlcN6P: "1e-05"
- Mutation string: "A14G U30G U47C"
  Readout unit: "s⁻¹"
  Censoring sign: "="
  self-cleavage kobs at 10000 uM GlcN6P: 0.00168
- Mutation string: "G7A U30A A39C A48C"
  Readout unit: "s⁻¹"
  Censoring sign: "<"
  self-cleavage kobs at 10000 uM GlcN6P: "1e-05"
- Mutation string: "A6C G7C G35A C68G"
  Readout unit: "s⁻¹"
  Censoring sign: "<"
  self-cleavage kobs at 10000 uM GlcN6P: "1e-05"
- Mutation string: "A14C U31G A39U"
  Readout unit: "s⁻¹"
  Censoring sign: "="
  self-cleavage kobs at 10000 uM GlcN6P: 0.0112
- Mutation string: "G40C G66C"
  Readout unit: "s⁻¹"
  Censoring sign: "="
  self-cleavage kobs at 10000 uM GlcN6P: 0.000531
- Mutation string: "A4U A39G C70A"
  Readout unit: "s⁻¹"
  Censoring sign: "="
  self-cleavage kobs at 10000 uM GlcN6P: 0.000171
- Mutation string: "A48U U65G C70U"
  Readout unit: "s⁻¹"
  Censoring sign: "="
  self-cleavage kobs at 10000 uM GlcN6P: 0.000132
- Mutation string: "A42G C68U"
  Readout unit: "s⁻¹"
  Censoring sign: "="
  self-cleavage kobs at 10000 uM GlcN6P: 0.0168
- Mutation string: "A14G C34G"
  Readout unit: "s⁻¹"
  Censoring sign: "<"
  self-cleavage kobs at 10000 uM GlcN6P: "1e-05"
- Mutation string: "A14U A53U U56G C58U"
  Readout unit: "s⁻¹"
  Censoring sign: "="
  self-cleavage kobs at 10000 uM GlcN6P: "3.75e-05"
- Mutation string: "A15G G66C"
  Readout unit: "s⁻¹"
  Censoring sign: "="
  self-cleavage kobs at 10000 uM GlcN6P: 0.000649
- Mutation string: "U45G C58A G66U"
  Readout unit: "s⁻¹"
  Censoring sign: "="
  self-cleavage kobs at 10000 uM GlcN6P: "8.19e-05"
- Mutation string: "A6C G44U G51A"
  Readout unit: "s⁻¹"
  Censoring sign: "<"
  self-cleavage kobs at 10000 uM GlcN6P: "1e-05"
- Mutation string: "A14C U47G"
  Readout unit: "s⁻¹"
  Censoring sign: "="
  self-cleavage kobs at 10000 uM GlcN6P: 0.000874
